Test system: CCRIS mutagenicity, Ames/micronucleus/aberration tests
Assay: CCRIS mutagenicity studies
Conditions: Test System: AMES SALMONELLA TYPHIMURIUM; Strain/Indicator: TA100; Metabolic Activation: HAMSTER, LIVER, S-9, AROCLOR 1254 (10%); Method: STANDARD PLATE
Active and inactive are the calls of the source. The rule behind the calls is not given here.

compound structure	mutagenic call
O=C1C=CC(=O)N1c1ccc(Cc2ccc(N3C(=O)C=CC3=O)cc2)cc1	inactive; negative
CCN(CC)c1ccc2nc3ccc(=[N+](CC)CC)cc-3oc2c1	inactive; negative
CCCCCCCCCCCC(=O)OOC(=O)CCCCCCCCCCC	inactive; negative
Nc1ccn([C@@H]2C=C(CO)[C@@H](O)[C@H]2O)c(=O)n1	inactive; negative
Nc1c(Oc2ccccc2)cc(O)c2c1C(=O)c1ccccc1C2=O	inactive; negative

* * *

Test system: CCRIS mutagenicity, Ames/micronucleus/aberration tests
Assay: CCRIS mutagenicity studies
Conditions: Test System: AMES SALMONELLA TYPHIMURIUM; Strain/Indicator: TA102; Metabolic Activation: NONE; Method: STANDARD PLATE
Description: The CCRIS database contains chemical records with carcinogenicity, mutagenicity, tumor promotion, and tumor inhibition test results. It was developed by the National Cancer Institute (NCI). Data are derived from studies cited in primary journals, current awareness tools, NCI reports, and other sources. Test results have been reviewed by experts in carcinogenesis and mutagenesis. CCRIS provides historical information from the years 1985 - 2011. It is no longer updated. […]
Calls of active or inactive are those of the source. No rule for the calls is given here.
Possible outcomes: active, inactive

molecule	label
CC(C)(C)OO	active
O=C(O)/C(Cl)=C(/C(=O)O)C(Cl)Cl	inactive
ClCc1ccccn1	inactive
Clc1cccnc1Cl	inactive
O=S(=O)(c1cc(Cl)cc(Cl)c1O)c1cc(Cl)cc(Cl)c1O	inactive
CN(C)S(=O)(=O)N(SC(F)(Cl)Cl)c1ccccc1	inactive
COc1ccc(CN(CCN(C)C)c2ccccn2)cc1	inactive
CCCCC(CC)COC(=O)c1ccccc1C(=O)OCC(CC)CCCC (stereo not drawn)	inactive
COC1=CC(=O)c2c(ncc3c2[nH]c2ccncc23)C1=O	active
C[N+]1(C)CCOCC1	inactive
Cc1cccc(C)c1C	active
C=C(C)C(=O)OCCOC(=O)NCCC(C)CC(C)(C)CNC(=O)OCCOC(=O)C(=C)C (stereo not drawn)	inactive
O=C1CN=C(c2ccccc2)c2cc([N+](=O)[O-])ccc2N1	inactive
CCn1cc(C(=O)O)c(=O)c2cc(F)c(N3CCNC(C)C3)c(F)c21 (stereo not drawn)	active
CNC(=O)Oc1ccc2c(c1)[C@]1(C)CCN(C)[C@@H]1N2C	inactive
CC1CS(=O)(=O)CCN1/N=C/c1ccc([N+](=O)[O-])o1 (stereo not drawn)	active
O=c1[nH]cc(F)c(=O)[nH]1	inactive
CN1CCN(c2ccc3nc(CCCc4ccc5nc(-c6ccc(N(CCCl)CCCl)cc6)[nH]c5c4)[nH]c3c2)CC1	active
CCOC(=O)c1[nH]c2ccccc2c1N=Cc1ccc(NC(C)=O)cc1	inactive
C=CCc1ccc2c(c1)OCO2	inactive
CC(C)(S)[C@@H](N)C(=O)O	active
O=c1[nH]c(=O)n([C@H]2C[C@H](O)[C@@H](CO)O2)cc1CCCl	active
CCN(CC)c1ccc(N=Nc2c(Cl)cc([N+](=O)[O-])cc2[N+](=O)[O-])cc1	inactive

* * *

System: CCRIS mutagenicity, Ames/micronucleus/aberration tests
Assay: CCRIS mutagenicity studies
Settings: Test System: AMES SALMONELLA TYPHIMURIUM; Strain/Indicator: TA100; Metabolic Activation: RAT, LIVER, S-9; Method: PREINCUBATION
The source made the active and inactive calls. How the calls were made is not given here.
Possible outcomes: active, inactive

compound	label
OCc1ccnc2ccccc12	inactive
CC(C)(C)OOC1(C)C=C(C(C)(C)C)C(=O)C(C(C)(C)C)=C1	inactive
Cc1ccnc2ccccc12	active
COc1ccc(C(=O)N2CCN(c3ccc4c(c3)CCC(=O)N4)CC2)cc1OC	inactive
CC1CN(N=O)CC(C)O1 (stereo not given)	active

* * *

Test system: CCRIS mutagenicity, Ames/micronucleus/aberration tests
Assay: CCRIS mutagenicity studies
Details: Test System: AMES SALMONELLA TYPHIMURIUM; Strain/Indicator: TA98; Metabolic Activation: NONE; Method: PREINCUBATION
Calls of active or inactive are those of the source. The rule behind the calls is not given here.
Possible outcomes: active, inactive

compound	label
OC1C2(Cl)C3(Cl)C4(Cl)C(Cl)(Cl)C5(Cl)C3(Cl)C1(Cl)C5(Cl)C24Cl (centres undefined)	inactive
C[C@H]1COc2c(C3(N)CC3)c(F)cc3c(=O)c(C(=O)O)cn1c23	inactive
CC(=O)NNC(=O)c1ccccn1	inactive
OC1c2ccccc2Oc2ccccc21	active
Cn1c(N)nc2c3cccnc3ccc21	inactive
CC(C)(c1ccccc1)c1ccc(O)cc1	inactive
Nc1ccc([N+](=O)[O-])c(N)c1	active
O=C(O)/C(Cl)=C(/CCl)C(=O)O	inactive
O=Cc1c([N+](=O)[O-])cccc1[N+](=O)[O-]	active
Cc1ccc2cc([N+](=O)[O-])ccc2c1	active
c1ccc(COCc2ccccc2)cc1	inactive
Nc1ccc(F)cc1F	inactive
O[C@@H]1[C@H]2O[C@H]2c2c(ccc3cc4ccc5ccccc5c4nc23)[C@H]1O	active
CC(I)C1OCC(CO)O1 (centres undefined)	inactive
O=Cc1ccccc1Cl	inactive
O=C1CCCCCCCCCCCCCCO1	inactive
O[C@H]1[C@@H]2O[C@@H]2C=C[C@@H]1O	inactive
Nc1ccccc1C(=O)OC/C=C/c1ccccc1	inactive
COc1cc(S(=O)(=O)O)c(C)cc1N=Nc1c(O)ccc2cc(S(=O)(=O)O)ccc12	inactive
CN1CCC(CN2c3ccccc3Sc3ccccc32)C1 (centres undefined)	inactive
O=C1CCCO1	inactive
CCCCNC(=O)C=Cc1ccc([N+](=O)[O-])o1	active
CC(=O)Nc1ccc(N=Nc2cc(C)ccc2O)cc1	active
O=C(O)c1ccc(S(=O)(=O)N(Cl)Cl)cc1	inactive
C1COCCN1	inactive
CC(C)C(C)(C)C(C)(C)C(C)(C)S	inactive
CCCCC(CC)COCCCN (centres undefined)	inactive
c1ccc2[nH]c(-c3cscn3)nc2c1	inactive
O=c1[nH]cc(F)c(=O)[nH]1	inactive

* * *

System: CCRIS mutagenicity, Ames/micronucleus/aberration tests
Assay: CCRIS mutagenicity studies
Settings: Test System: AMES SALMONELLA TYPHIMURIUM; Strain/Indicator: TA1537; Metabolic Activation: MOUSE, LIVER, S-9; Method: STANDARD PLATE
Active and inactive are the calls of the source. No rule for the calls is given here.

compound structure	mutagenic call
C#C[C@]1(O)CC[C@H]2[C@@H]3CCC4=CC(=O)CC[C@@H]4[C@H]3CC[C@@]21CC	inactive; negative
c1ccc(NNc2ccccc2)cc1	inactive; negative
CN(C)c1ccc(Cc2ccc(N(C)C)cc2)cc1	inactive; negative

* * *

Tested on: CCRIS mutagenicity, Ames/micronucleus/aberration tests
Experiment: CCRIS mutagenicity studies
Conditions: End Point: IN VITRO CHROMOSOMAL ABERRATIONS; Test System: CHL CELLS; Metabolic Activation: RAT, LIVER, S-9, SODIUM PHENOBARBITAL AND 5,6-BENZOFLAVONE
Calls of active or inactive are those of the source. No rule for the calls is given here.
Possible outcomes: active, inactive

compound	label
Cc1c(N=C=O)cccc1N=C=O	active
Nc1c(Cl)cc([N+](=O)[O-])cc1[N+](=O)[O-]	active
O=C(ON=C1C=CC(=NOC(=O)c2ccccc2)C=C1)c1ccccc1	inactive
C=C(C)CCl	active
Nc1ccc(Cl)cc1N	active
O=NN1CN2CN(C1)CN(N=O)C2	active
C/C=C/C=O	active
C=CC#N	active
NN	active
CC(=O)OCCN(CCC#N)c1ccc(N=Nc2ccc([N+](=O)[O-])cc2)cc1	inactive
ClCC1CO1 (stereo not drawn)	active
Nc1ccc([N+](=O)[O-])cc1N	inactive
O=[N+]([O-])c1cccc2c([N+](=O)[O-])cccc12	active

* * *

System: CCRIS mutagenicity, Ames/micronucleus/aberration tests
Test: CCRIS mutagenicity studies
Conditions: Test System: AMES SALMONELLA TYPHIMURIUM; Strain/Indicator: TA98; Metabolic Activation: HAMSTER, LIVER, S-9, AROCLOR 1254 (10%); Method: PREINCUBATION
Active and inactive are the calls of the source. The rule behind the calls is not given here.
Possible outcomes: active, inactive

compound	label
CCN(CC)CCO	inactive
Nc1ccc(Br)cc1	inactive
NC(=O)c1cnccn1	inactive
Nc1ccccc1C(=O)OC1CCCCC1	inactive
O=c1[nH]cc(F)c(=O)[nH]1	inactive
[Cl][Pd][Cl]	inactive
CC(C)(C)c1cc(O)ccc1O	inactive
Nc1ccccc1C(=O)OC/C=C/c1ccccc1	inactive
FC(F)(F)c1ccccc1Cl	inactive
CN(CCO)CCO	inactive
C=C(C)C1CC=C(C)C(O)C1 (stereo unspecified)	inactive
O=[N+]([O-])c1ccccc1CCl	inactive
O=C1CCc2ccccc2O1	inactive
CCCCCCCCCCCC[S][Sn]([CH2]CCC)([CH2]CCC)[S]CCCCCCCCCCCC	inactive
c1ccoc1	inactive
CCNc1cc(O)ccc1C	active
